test system: Escherichia coli ATCC 25922

{"structure smiles": "CC[C@H](C)[C@H](NC(=O)[C@H](CCCN=C(N)N)NC(=O)[C@@H](N)CCCN=C(N)N)C(=O)N[C@@H](CCCN=C(N)N)C(=O)N1CCC[C@H]1C(=O)N[C@@H](CCCN=C(N)N)C(=O)N1CCC[C@H]1C(=O)O", "MIC": "> 500 µM"}
{"structure smiles": "C[C@H](N)C(=O)N[C@@H](CCCN=C(N)N)C(=O)N[C@@H](Cc1c[nH]c2ccccc12)C(=O)N[C@@H](Cc1c[nH]c2ccccc12)C(=O)N[C@@H](Cc1c[nH]c2ccccc12)C(=O)N[C@@H](CCCN=C(N)N)C(=O)N[C@@H](C)C(N)=O", "MIC": "> 128 µM"}
{"structure smiles": "CC(C)[C@H](N)C(=O)N[C@H](C(=O)N[C@@H](CCCCN)C(=O)N[C@@H](Cc1ccccc1)C(=O)N[C@@H](CO)C(=O)N[C@@H](Cc1ccc(O)cc1)C(=O)N[C@@H](CCCN=C(N)N)C(=O)N[C@@H](CCCCN)C(=O)NCC(=O)N[C@@H](CO)C(=O)N1CCC[C@H]1C(=O)N[C@@H](C)C(=O)N1CCC[C@H]1C(=O)N[C@@H](CCC(N)=O)C(=O)N[C@@H](CCCCN)C(=O)N[C@@H](CC(N)=O)C(=O)O)C(C)C", "MIC": "> 111 µM"}
{"structure smiles": "CC[C@H](C)[C@H](NC(=O)CN)C(=O)N[C@H](C(=O)N[C@@H](C)C(=O)NCC(=O)N[C@H](C(=O)N[C@H](C(=O)N[C@@H](C)C(=O)N[C@@H](CCCCN)C(=O)N[C@H](C(=O)N[C@@H](CCCCN)C(=O)N[C@@H](CCCCN)C(N)=O)[C@@H](C)CC)[C@@H](C)CC)[C@@H](C)CC)[C@@H](C)CC", "MIC": "> 128 µM"}
{"structure smiles": "CC[C@H](C)[C@H](N)C(=O)N1CCC[C@H]1C(=O)N[C@@H](CC(C)C)C(=O)N[C@@H](CC(C)C)C(=O)N[C@@H](CCCN=C(N)N)C(=O)N[C@@H](CCCCN)C(=O)NCC(=O)N[C@@H](CCCCN)C(=O)N[C@@H](CCCCN)C(=O)N[C@H](C(=O)N[C@H](C(=O)N[C@@H](Cc1c[nH]c2ccccc12)C(=O)N[C@@H](Cc1c[nH]c2ccccc12)C(=O)O)[C@@H](C)CC)[C@@H](C)CC", "MIC": "> 64 µM"}
{"structure smiles": "CC[C@H](C)[C@H](NC(=O)[C@H](CCCN=C(N)N)NC(=O)[C@H](CCCCN)NC(=O)[C@@H](N)CC(C)C)C(=O)N[C@@H](CCCCN)C(=O)N[C@H](C(=O)N[C@@H](CC(C)C)C(=O)N[C@@H](CC(C)C)C(N)=O)[C@@H](C)O", "MIC": "> 31.5 µM"}
